- Tested on: K98450-129-R-PDC multicell spheroids, viability;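 also: spheroids exposed to agents for seven days before read-out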
- MEASUREMENT_PROTOCOL: Anticancer human tumor K98450-129-R-PDC patient-derived colon adenocarcinoma cell line growth inhibition [PI3K]
- CONDITION_DESCRIPTION: second compound 0.0316 µM; first compound 0.1 µM; hits give low values
RECORDED_ENDPOINT: viability, T/C

CC(Cn1ccc(-c2ccc(C#N)c(Cl)c2)n1)NC(=O)c1cc(C(C)O)[nH]n1 (centres undefined) + Cc1nc(NC(=O)N2CCCC2C(N)=O)sc1-c1ccnc(C(C)(C)C(F)(F)F)c1
98.6%
CC(C)NCC(C(=O)N1CCN(c2ncnc3c2C(C)CC3O)CC1)c1ccc(Cl)cc1 (centres undefined) + CC(Nc1ccc2c(c1)OCCn1cc(N3C(=O)OCC3C(F)F)nc1-2)C(N)=O
104%
CC(C)n1nc(-c2ccc3oc(N)nc3c2)c2c(N)ncnc21 + CC(Nc1ccc2c(c1)OCCn1cc(N3C(=O)OCC3C(F)F)nc1-2)C(N)=O
74%
CCN1CCN(Cc2ccc(Nc3ncc(F)c(-c4cc(F)c5nc(C)n(C(C)C)c5c4)n3)nc2)CC1 + COc1c(OCCCN2CCOCC2)ccc2c3n(c(=NC(=O)c4cnc(N)nc4)nc12)CCN3
66.8%
CC1(C)CCC(Nc2ncc(C(F)(F)F)c(-c3c[nH]c4c(P(C)(C)=O)c(C#N)ccc34)n2)CN1 (centres undefined) + COc1c(OCCCN2CCOCC2)ccc2c3n(c(=NC(=O)c4cnc(N)nc4)nc12)CCN3
77.5%
CC(C)NCC(C(=O)N1CCN(c2ncnc3c2C(C)CC3O)CC1)c1ccc(Cl)cc1 (centres undefined) + Cc1nc(NC(=O)N2CCCC2C(N)=O)sc1-c1ccnc(C(C)(C)C(F)(F)F)c1
99.1%
CCN1CCN(Cc2ccc(Nc3ncc(F)c(-c4cc(F)c5nc(C)n(C(C)C)c5c4)n3)nc2)CC1 + CC(Nc1ccc2c(c1)OCCn1cc(N3C(=O)OCC3C(F)F)nc1-2)C(N)=O
89.9%
CCCS(=O)(=O)Nc1ccc(F)c(C(=O)c2c[nH]c3ncc(-c4ccc(Cl)cc4)cc23)c1F + CC(Nc1ccc2c(c1)OCCn1cc(N3C(=O)OCC3C(F)F)nc1-2)C(N)=O
105%

Let us move to another entry and its viability, T/C.
## Input Give recorded viability, T/C. CNC(=O)c1ccc(N2C(=S)N(c3ccc(C#N)c(C(F)(F)F)c3)C(=O)C2(C)C)cc1F + CC(Nc1ncnc2nc[nH]c12)c1cc2cccc(Cl)c2c(=O)n1-c1ccccc1
## Output 100%
